From: patent US20260242478A1

Molecular target: T1, PSMA Fab (biotinylated (site not stated))
T1 construct: Biotinylated PSMA Fab captured on neutravidin coated plates in the phage ELISA; also called Anti-PSMA Fab; 006 PSMA Fab
Test: clonal phage ELISA on plate-bound PSMA Fab pre-incubated with PSMA antigen as competitor
Where no end group is shown, it is not given here.
binders and their reported phage binding ELISA signal

Worked examples, 2 binders total:
{"columns": ["binder", "phage binding ELISA signal"],
 "data": [
  ["AIAMCVPSWMCTGL (cysteine pairing not given here; also: fused to phage pIII, sequence not given here, not shown: pIII filament protein of the bacteriophage) [Phage-3213]", 0.0711],
  ["LQILCKPQWMCEGL (not shown: pIII filament protein of the bacteriophage) [Phage-3221]", 0.0882]
]}

Switching to the query record.
Entry MELKCVPKWMCAGF (cysteine pairing not given here; also: fused to phage pIII, sequence not given here, not shown: pIII filament protein of the bacteriophage) [Phage-3222] ; phage binding ELISA signal = 0.0684
